# assayed system: IRE1α (Homo sapiens (Human), UniProt O75460, D688N)
# Sequence (O75460 547-977 D688N): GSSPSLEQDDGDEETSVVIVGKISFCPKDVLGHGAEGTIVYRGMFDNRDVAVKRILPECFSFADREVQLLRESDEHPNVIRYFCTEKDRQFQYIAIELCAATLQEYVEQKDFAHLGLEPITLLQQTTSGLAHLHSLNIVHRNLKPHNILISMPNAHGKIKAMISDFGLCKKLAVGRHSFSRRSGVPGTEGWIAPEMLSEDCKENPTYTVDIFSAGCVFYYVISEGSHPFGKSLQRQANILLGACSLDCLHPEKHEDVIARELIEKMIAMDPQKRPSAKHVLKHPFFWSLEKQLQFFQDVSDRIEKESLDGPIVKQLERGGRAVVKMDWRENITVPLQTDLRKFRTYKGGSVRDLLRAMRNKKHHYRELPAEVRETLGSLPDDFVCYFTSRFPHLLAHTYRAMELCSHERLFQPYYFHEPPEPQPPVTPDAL
# assay name: IRE1α TR-FRET competition binding assay (IRE1α HTRF)
# measurement setup: TR-FRET competition binding to kinase domain of IRE1α
Kindly apply the following: Criterion met if IC50 is less than 0.3 nM, Criterion not met in every other case.

# example entries with known answers
[[record]]
compound = "CC(C)n1c(=O)c(-c2ccc(NS(=O)(=O)CCC(F)(F)F)c(F)c2)cc2cnc(N[C@H]3CC[C@H](N4CCC4)CC3)nc21"
group = "Criterion not met"

[[record]]
compound = "CC(C)n1c(=O)c(-c2cc(F)c(NS(=O)(=O)CCC(F)(F)F)c(F)c2F)cc2cnc(N[C@H]3CC[C@H](N(C)C)CC3)nc21"
group = "Criterion not met"

[[record]]
compound = "CC(C)n1c(=O)c(-c2ccc(NS(=O)(=O)CCC(F)(F)F)c(F)c2)cc2cnc(N[C@H]3CCC[C@@H](N(C)C)C3)nc21"
group = "Criterion not met"

[[record]]
compound = "Cc1cc(-c2nc3cnc(N[C@@H]4CNC[C@@H](F)C4)nc3n(C(C)C)c2=O)cc(F)c1NS(=O)(=O)Cc1ccccc1"
group = "Criterion not met"


[Q] Please indicate whether the reported IC50 of CC(C)n1c(=O)c(-c2cccc(NS(=O)(=O)Cc3ccccc3)c2F)cc2cnc(N[C@H]3CCCNC3)nc21 is strictly below 0.3 nM.
[A] Criterion not met

[Q] What about CC(C)n1c(=O)c(-c2ccc(NS(=O)(=O)CCC(F)(F)F)c(F)c2)cc2cnc(NC3CCC(N(C)C)C(F)C3)nc21 (single isomer, unassigned) [Compound 110A] ?
[A] Criterion met

[Q] What about CCC1CCN(c2ccc(-c3cc4cnc(N[C@@H]5CNC[C@@H](F)C5)nc4n(CC)c3=O)c(F)c2F)C1=O (stereo partly drawn) ?
[A] Criterion not met

[Q] What about Cc1nc(NS(=O)(=O)c2ccc(F)cc2)ccc1-c1cc2cnc(N[C@H]3CC[C@H](N(C)C)CC3)nc2n(C(C)C)c1=O ?
[A] Criterion not met

[Q] What about COc1ccc(CS(=O)(=O)Nc2c(F)cc(-c3cc4cnc(N[C@@H]5CNC[C@@H](F)C5)nc4n(C(C)C)c3=O)c(F)c2F)cc1 ?
[A] Criterion met

[Q] What about CC(C)n1c(=O)c(-c2cc(F)c(NS(=O)(=O)Cc3ccccc3)c(F)c2)cc2cnc(N[C@H]3CC[C@H](N(C)C)CC3)nc21 ?
[A] Criterion met

[Q] What about CC(C)n1c(=O)c(-c2ccc(NS(=O)(=O)CCC(F)(F)F)c(F)c2)cc2cnc(N[C@H]3CC[C@H](N(C)CC4CCO4)CC3)nc21 (stereo partly drawn) ?
[A] Criterion met
